System: S. pyogenes
Assay: MIC, broth microdilution
Format: cell-based, Streptococcus pyogenes
Details: S. pyogenes 12-206, c-ermTR
Protocol: MICs were determined by the microdilution method according to the Clinical and Laboratory Standards Institute guidelines. […] Finally, the 96-well plates were incubated at 37 °C for 16–20 h to observe and record the results. […] The assay for MICs was replicated at least three times.
Would you kindly list MIC for each of these molecules?
Dear colleague, please send the value followed by its unit.

Input: Output measured MIC for this item: CC[C@H]1OC(=O)[C@H](C)[C@@H](OC(=O)NCCCCCC#Cc2ccc3c(=O)c(C(=O)NO)cn(C4CC4)c3c2)[C@H](C)[C@@H](O[C@@H]2O[C@H](C)C[C@H](N(C)C)[C@H]2O)[C@](C)(OC)C[C@@H](C)C(=NOC)[C@H](C)[C@H]2OC(=O)O[C@@]21C [57e]
Output: 128 µg/mL

Input: Complete the entry with MIC for CC[C@H]1OC(=O)[C@H](C)[C@@H](OC(=O)NCCCCCCCc2ccc3c(c2)c(=O)c(C(N)=O)cn3C2CC2)[C@H](C)[C@@H](O[C@@H]2O[C@H](C)C[C@H](N(C)C)[C@H]2O)[C@](C)(OC)C[C@@H](C)C(=NOC)[C@H](C)[C@H]2OC(=O)O[C@@]21C [61b]
Output: 16 µg/mL

Input: Answer with the recorded MIC for the molecule listed here: CC[C@H]1OC(=O)[C@H](C)[C@@H](OC(=O)NCCCCCCCCCCc2ccc3c(c2)c(=O)c(C(N)=O)cn3C2CC2)[C@H](C)[C@@H](O[C@@H]2O[C@H](C)C[C@H](N(C)C)[C@H]2O)[C@](C)(OC)C[C@@H](C)C(=NOC)[C@H](C)[C@H]2OC(=O)O[C@@]21C [64b]
Output: 16 µg/mL

Input: For the molecule CC[C@H]1OC(=O)[C@H](C)[C@@H](OC(=O)NCCCCCC#Cc2ccc3c(=O)c(C(=O)O)cn(C4CC4)c3c2)[C@H](C)[C@@H](O[C@@H]2O[C@H](C)C[C@H](N(C)C)[C@H]2O)[C@](C)(O)C[C@@H](C)CN(C)[C@H](C)[C@H]2OC(=O)O[C@@]21C [110c] , report MIC.
Output: 2 µg/mL

Input: Identify MIC associated with the molecule CC[C@H]1OC(=O)[C@H](C)[C@@H](OC(=O)NCCCCCc2ccc3c(c2)c(=O)c(C(N)=O)cn3C2CC2)[C@H](C)[C@@H](O[C@@H]2O[C@H](C)C[C@H](N(C)C)[C@H]2O)[C@](C)(OC)C[C@@H](C)C(=NOC)[C@H](C)[C@H]2OC(=O)O[C@@]21C [59b]
Output: 64 µg/mL

Input: Assign MIC to the following record: CC[C@H]1OC(=O)[C@H](C)[C@@H](OC(=O)NCCCCCCCCc2ccc3c(=O)c(C(=O)O)cn(C)c3c2)[C@H](C)[C@@H](O[C@@H]2O[C@H](C)C[C@H](N(C)C)[C@H]2O)[C@](C)(O)C[C@@H](C)CN(C)[C@H](C)[C@@H](O)[C@]1(C)O [107g]
Output: 8 µg/mL

Input: Provide MIC value for the following molecule: CC[C@H]1OC(=O)[C@H](C)[C@@H](OC(=O)NCCCCCCc2ccc3c(c2)c(=O)c(C(N)=O)cn3C2CC2)[C@H](C)[C@@H](O[C@@H]2O[C@H](C)C[C@H](N(C)C)[C@H]2O)[C@](C)(OC)C[C@@H](C)C(=NOC)[C@H](C)[C@H]2OC(=O)O[C@@]21C [60b]
Output: 32 µg/mL
